# PROCEDURE_SUMMARY: Solubility in phosphate buffer by the shake flask method
# Type: physicochemical
# SETUP_CONDITIONS: 37 °C, pH 7, aqueous buffer, thermodynamic from solid, pH 7.0, 37° C., 24 h shake flask
OBSERVED_PROPERTY: solubility at 24 h (µg/mL)

P: NCC1CC(n2cc(-c3ccc4[nH]ccc4c3)c3c(N)ncnc32)C1 (stereo not shown) [Compound 3]
Q: Nc1ncnc2c1c(-c1cccc(OCc3ccccc3)c1)cn2C1CC(CN2CCCC2)C1 (stereo not shown) [reference compound]
R: CC(=O)NCC1CC(n2cc(-c3cccc(OCc4ccccc4)c3)c3c(N)ncnc32)C1 (stereo not shown) [reference compound]
Order the records so the highest solubility at 24 h appears first and the lowest last. Labels, ranked as asked.
P, Q, R
